Form field: %Inh (one value per entry).
Test system: NLK;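 note: KINOMEscan kinase panel screen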
Settings: concentration: 1 μM, replicates: in singlicate; n = 1

{"columns": ["compound", "unit-label", "%Inh"],
 "data": [
  ["Cl.NS(=O)(=O)c1cccc(Nc2cc(-c3ccc(F)cc3)n[nH]2)c1", "%", 0],
  ["OCCCNc1nccc(-c2c(-c3cccc(C(F)(F)F)c3)nn3cc(C(F)(F)F)ccc23)n1", "%", 92.7],
  ["FC(F)(F)c1ccc(-c2ncn(CCCN3CCOCC3)c2-c2ccncc2)cc1", "%", 35],
  ["COc1cc(OC)cc(-c2cc3cnc(N)nc3nc2NC(=O)NC(C)(C)C)c1", "%", 0],
  ["CCC(=O)c1c(-c2ccccc2)c2cc(Cl)ccc2c(=O)n1Cc1cc(S(C)(=O)=O)n(CC(N)=O)n1", "%", 0],
  ["COc1cc2nccc(Nc3ccc(OCc4ccc(NC(C)=O)cc4)cc3)c2cc1OC.Cl", "%", 10],
  ["CCC(=O)c1c(-c2ccccc2)c2cc(Cl)ccc2c(=O)n1Cc1ccc(C(=O)O)cc1", "%", 0],
  ["COc1cc2ncn(-c3cc(OCc4ccncc4Br)c(C(N)=O)s3)c2cc1OC", "%", 0],
  ["Nc1nc(-c2ccccc2F)c(-c2ccnc3ccccc23)s1", "%", 27],
  ["Cc1ccc(-c2ccc3c(ccc4sc5c(c43)NC[C@@H](C)N=C5N(C)C)n2)cn1", "%", 0],
  ["COc1ccc(Nc2nccc(N3CCC(NS(=O)(=O)c4ccc(NC(C)=O)cc4)C3)n2)cc1 (stereo not shown)", "%", 13],
  ["COc1cc2nccc(Nc3cccc(Oc4ccccc4)c3)c2cc1OC.Cl", "%", 24],
  ["Cn1c(=O)c(F)c(Nc2ccc(I)cc2F)c2c(=O)n(OC[C@H](O)CO)cnc21", "%", 0],
  ["Fc1cccc(CSc2nnc(-c3ccc4c(c3)CCO4)o2)c1", "%", 0],
  ["Cc1nc(N(C)[C@H]2CN(C(=O)CC#N)CC[C@H]2C)c2cc[nH]c2n1", "%", 7],
  ["Cc1nnc(-c2ccc3ncn(-c4ccc(S(C)=O)cc4)c3c2)o1 (stereo not shown)", "%", 0],
  ["Nc1ncnc2c1ncn2-c1cccc2ccccc12", "%", 0],
  ["COC(=O)c1c(-c2ccccc2)c2cc(C)ccc2c(=O)n1Cc1ccccc1", "%", 0],
  ["C[C@@H]1CC[C@H](C(=O)NC2CCCCC2)CN1c1cc(-c2ccc3c(N)n[nH]c3c2)nc(N)n1", "%", 7],
  ["Nc1nc(N)c2nc(-c3ccccc3)[nH]c2n1", "%", 2],
  ["CCC(=O)c1c(-c2ccccc2)c2cc(Cl)ccc2c(=O)n1Cc1cc(S(C)(=O)=O)n(CCC(C)(C)O)n1", "%", 0],
  ["O=C(NCCNc1ccnc(Nc2ccc(F)cc2)n1)Nc1ccc2c(c1)OCO2", "%", 0],
  ["Nc1nccc2scc(-c3ccc4c(c3)CCN4C(=O)Cc3ccccc3)c12", "%", 0],
  ["COc1cc(Nc2ccnc3ccc(C(F)(F)F)cc23)cc(OC)c1OC", "%", 73],
  ["COc1ccc(-c2coc3ccc(-c4nnc(SCc5cccc(C#N)c5)o4)cc23)cc1", "%", 0],
  ["Cc1ccccc1COc1cc(-n2cnc3cc(Cl)ccc32)sc1C(N)=O", "%", 0],
  ["CCn1c(-c2nonc2N)nc2ccccc21", "%", 0],
  ["O=C(NCc1cccs1)c1cc(C(=O)c2c(Cl)cccc2Cl)c[nH]1", "%", 0]
]}
